B1: Hairpin Ribozyme (parent)
chain: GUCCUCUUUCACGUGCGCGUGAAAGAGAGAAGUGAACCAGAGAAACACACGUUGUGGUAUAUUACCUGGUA

# Variants of: B1
# Protocol Description: self-cleavage, relative activity (ratio to wild type); higher = more cleavage; co-transcriptional
Response key: Criterion met means self-cleavage >= 0.3; Criterion not met means self-cleavage < 0.3.

Example entries begin here.
Mutant Id | Assigned Class
A22G C48G | Criterion not met
G15C G19U | Criterion met
A45C U70A | Criterion not met
U8G C46U | Criterion not met
U9A A49C | Criterion not met
G17C G19A | Criterion met
A26U A61U | Criterion not met
U20G G32A | Criterion not met
G17U A35C | Criterion met
U8A U67G | Criterion not met

## Task Test whether the variant C18G A26C records self-cleavage of 0.3 or higher.
## Result Criterion met

## Task Test whether the variant C10A U52A records self-cleavage of 0.3 or higher.
## Result Criterion met

## Task Test whether the variant A35U A47G records self-cleavage of 0.3 or higher.
## Result Criterion not met

## Task Test whether the variant G25A G27U records self-cleavage of 0.3 or higher.
## Result Criterion not met

## Task Test whether the variant U63A C66A records self-cleavage of 0.3 or higher.
## Result Criterion not met

## Task Test whether the variant C3U A30U records self-cleavage of 0.3 or higher.
## Result Criterion not met

## Task Test whether the variant C10U G56A records self-cleavage of 0.3 or higher.
## Result Criterion not met

The values you see were collected from the RNAGym collection of RNA variant scans (doi:10.7554/elife.80360).
